ASSAY_OVERVIEW: Toxicity (50% lethal dose, intravenous)
Type: in vivo
CONDITIONS_USED: mouse, in vivo, iv, ddY male mice 20-25 g, read-out: LD50
Text: Using ddY male mice weighing 20-25 g, 50% lethal dose of each test compound when intravenously administered was obtained, the results of which are shown in Table 6.
PARAMETER: LD50 (mg/kg)

[[record]]
compound = "CCNCCN(CC)CCN(CC)CCN(CC)CC=C(C)CCCC(C)CCCC(C)CCCC(C)C (stereo not shown)"
readout_value = 34

